Biological target: human Y2 receptor (Homo sapiens, UniProt P49146)
Construct: expressed in transfected cells; membrane fraction
Sequence (P49146 1-381): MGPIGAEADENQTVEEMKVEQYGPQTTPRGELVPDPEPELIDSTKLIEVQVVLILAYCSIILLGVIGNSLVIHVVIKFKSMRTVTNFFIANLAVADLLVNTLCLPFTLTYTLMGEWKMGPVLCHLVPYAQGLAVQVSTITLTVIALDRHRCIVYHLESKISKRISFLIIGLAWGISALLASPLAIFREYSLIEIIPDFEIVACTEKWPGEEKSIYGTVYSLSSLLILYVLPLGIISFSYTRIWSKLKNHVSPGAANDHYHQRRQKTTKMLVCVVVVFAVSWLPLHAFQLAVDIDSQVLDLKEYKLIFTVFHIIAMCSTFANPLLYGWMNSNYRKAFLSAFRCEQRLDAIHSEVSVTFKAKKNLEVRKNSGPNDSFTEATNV
Assay: Human Y2 Receptor G Protein Binding Assay (GBA), [35S]GTPγS
Format: biochemical
Settings: EC50 of test compound/EC50 of PYY(3-36) (PYY3-36 taken as 1), hY2R/CHO membrane fraction
Non-standard residues stand in square brackets, D forms with d. *: point of attachment. Cha = N[C@@H](CC1CCCCC1)C(=O)O; Isobutyryl = CC(C)C(=O)*; Abu = CC[C@H](N)C(=O)O; Aib = CC(C)(N)C(=O)O; Bz = O=C(c1ccccc1)*
MEASURED ATTRIBUTE: GBA EC50 Ratio

>>> result("Benzoyl-[Ser26, Cha27,28,36, Aib31]-PYY(25-36) (Bz-RS[Cha][Cha]NL[Aib]TRQR[Cha]-NH2; SMILES CC(C)C[C@H](NC(=O)[C@H](CC(N)=O)NC(=O)[C@H](CC1CCCCC1)NC(=O)[C@H](CC1CCCCC1)NC(=O)[C@H](CO)NC(=O)[C@H](CCCNC(=N)N)NC(=O)c1ccccc1)C(=O)NC(C)(C)C(=O)N[C@H](C(=O)N[C@@H](CCCNC(=N)N)C(=O)N[C@@H](CCC(N)=O)C(=O)N[C@@H](CCCNC(=N)N)C(=O)N[C@@H](CC1CCCCC1)C(N)=O)[C@@H](C)O) [compound No. 97]")
6.0
>>> result("Isobutanoyl-[Abu26, Gly27, Cha28,36, Aib31]-PYY(25-36) (Isobutyryl-R[Abu]G[Cha]NL[Aib]TRQR[Cha]-NH2; SMILES CC[C@H](NC(=O)[C@H](CCCNC(=N)N)NC(=O)C(C)C)C(=O)NCC(=O)N[C@@H](CC1CCCCC1)C(=O)N[C@@H](CC(N)=O)C(=O)N[C@@H](CC(C)C)C(=O)NC(C)(C)C(=O)N[C@H](C(=O)N[C@@H](CCCNC(=N)N)C(=O)N[C@@H](CCC(N)=O)C(=O)N[C@@H](CCCNC(=N)N)C(=O)N[C@@H](CC1CCCCC1)C(N)=O)[C@@H](C)O) [compound No. 95]")
49
>>> result("Benzoyl-[Asn26, Cha27,28,36, Aib31]-PYY(25-36) (Bz-RN[Cha][Cha]NL[Aib]TRQR[Cha]-NH2; SMILES CC(C)C[C@H](NC(=O)[C@H](CC(N)=O)NC(=O)[C@H](CC1CCCCC1)NC(=O)[C@H](CC1CCCCC1)NC(=O)[C@H](CC(N)=O)NC(=O)[C@H](CCCNC(=N)N)NC(=O)c1ccccc1)C(=O)NC(C)(C)C(=O)N[C@H](C(=O)N[C@@H](CCCNC(=N)N)C(=O)N[C@@H](CCC(N)=O)C(=O)N[C@@H](CCCNC(=N)N)C(=O)N[C@@H](CC1CCCCC1)C(N)=O)[C@@H](C)O) [compound No. 99]")
21
>>> result("Benzoyl-[Cha27,28,36, Aib31]-PYY(25-36) (Bz-RH[Cha][Cha]NL[Aib]TRQR[Cha]-NH2; SMILES CC(C)C[C@H](NC(=O)[C@H](CC(N)=O)NC(=O)[C@H](CC1CCCCC1)NC(=O)[C@H](CC1CCCCC1)NC(=O)[C@H](Cc1c[nH]cn1)NC(=O)[C@H](CCCNC(=N)N)NC(=O)c1ccccc1)C(=O)NC(C)(C)C(=O)N[C@H](C(=O)N[C@@H](CCCNC(=N)N)C(=O)N[C@@H](CCC(N)=O)C(=O)N[C@@H](CCCNC(=N)N)C(=O)N[C@@H](CC1CCCCC1)C(N)=O)[C@@H](C)O) [compound No. 64]")
18

// switching to the query substance
Look up and state reported GBA EC50 Ratio for Isobutanoyl-[Abu26, Cha27,36, Ser28, Aib31]-PYY(25-36) (Isobutyryl-R[Abu][Cha]SNL[Aib]TRQR[Cha]-NH2; SMILES CC[C@H](NC(=O)[C@H](CCCNC(=N)N)NC(=O)C(C)C)C(=O)N[C@@H](CC1CCCCC1)C(=O)N[C@@H](CO)C(=O)N[C@@H](CC(N)=O)C(=O)N[C@@H](CC(C)C)C(=O)NC(C)(C)C(=O)N[C@H](C(=O)N[C@@H](CCCNC(=N)N)C(=O)N[C@@H](CCC(N)=O)C(=O)N[C@@H](CCCNC(=N)N)C(=O)N[C@@H](CC1CCCCC1)C(N)=O)[C@@H](C)O) [compound No. 102]
35
